Let's look at some molecules and their measured BLOOD UREA NITROGEN.
species: Rattus norvegicus; assay: DrugMatrix - Regimen: Daily Repeat; format: toxicity, organism-based, Sprague-Dawley; parameters: regimen Daily Repeat, gender Male, age 6-8 weeks; conditions: in vivo, po, 0 mg/kg, 72 h, tissue Plasma, route oral GAVAGE, dose level Control, time 3 day, vehicle 100 % WATER

molecule | BLOOD UREA NITROGEN [mg/dL]
CCCc1nn(C)c2c(=O)[nH]c(-c3cc(S(=O)(=O)N4CCN(C)CC4)ccc3OCC)nc12 | 13.67
CN1C2CCCC1CC(NC(=O)c1nn(C)c3ccccc13)C2 (configuration not stated) | 12.83
O=C(O)c1cccnc1 | 14.5
CNS(=O)(=O)Cc1ccc2[nH]cc(CCN(C)C)c2c1 | 15.83
O=C(O)c1cc(=O)c2c(OCC(O)COc3cccc4oc(C(=O)O)cc(=O)c34)cccc2o1 | 15.5
CC[C@H]1OC(=O)[C@H](C)[C@@H](O[C@H]2C[C@@](C)(OC)[C@@H](O)[C@H](C)O2)[C@H](C)[C@@H](O[C@@H]2O[C@H](C)C[C@H](N(C)C)[C@H]2O)[C@](C)(O)C[C@@H](C)CN(C)[C@H](C)[C@@H](O)[C@]1(C)O | 11
Cc1c(N(C)CS(=O)(=O)[O-])c(=O)n(-c2ccccc2)n1C.[Na+] [DIPYRONE SODIUM] | 16
CCOC(N)=O | 14.67
Nc1ccc(S(=O)(=O)Nc2ncccn2)cc1 | 14.67
CC[C@H]1OC(=O)[C@H](C)[C@@H](O[C@H]2C[C@@](C)(OC)[C@@H](O)[C@H](C)O2)[C@H](C)[C@@H](O[C@@H]2O[C@H](C)C[C@H](N(C)C)[C@H]2O)[C@](C)(OC)C[C@@H](C)C(=O)[C@H](C)[C@@H](O)[C@]1(C)O | 13.5
CCCCCCCCCCCCCCCC[n+]1ccccc1.[Br-] | 12.67
CCN[C@@H](C)Cc1cccc(C(F)(F)F)c1 | 14.67
OCCO | 13.67
CCN(CC)CC#CCOC(=O)C(O)(c1ccccc1)C1CCCCC1 (configuration not stated) | 14.33
CC(C)(C)NC[C@H](O)COc1nsnc1N1CCOCC1 | 12.83
O=P1(N(CCCl)CCCl)NCCCO1 (configuration not stated) [CYCLOPHOSPHAMIDE ANHYDROUS] | 13.17
Nc1ccc(S(=O)(=O)Nc2nccs2)cc1 | 12.83

----------
species: Rattus norvegicus; test: DrugMatrix - Regimen: Daily Repeat; assay type: toxicity, organism-based, Sprague-Dawley; design: regimen Daily Repeat, gender Male, age 6-8 weeks; details: in vivo, po, 0 mg/kg, 72 h, tissue Plasma, route oral GAVAGE, dose level Control, time 3 day, vehicle .5 % CMC
metric-name: ALBUMIN (G/DL)

compound | metric-name | test-value
CCCCC1C(=O)N(c2ccccc2)N(c2ccccc2)C1=O | ALBUMIN | 4.22
Clc1cc2c(cc1Cl)Oc1cc(Cl)c(Cl)cc1O2 | ALBUMIN | 3.62
C=C(CC)C(=O)c1ccc(OCC(=O)O)c(Cl)c1Cl | ALBUMIN | 3.88
CC(C)(Sc1cc(C(C)(C)C)c(O)c(C(C)(C)C)c1)Sc1cc(C(C)(C)C)c(O)c(C(C)(C)C)c1 | ALBUMIN | 4.27
COc1ccccc1OCC(O)COC(N)=O (stereo not drawn) | ALBUMIN | 4.15
CC(=O)O[C@]1(C(C)=O)CC[C@H]2[C@@H]3C=C(Cl)C4=CC(=O)[C@@H]5C[C@@H]5[C@]4(C)[C@H]3CC[C@@]21C [CYPROTERONE ACETATE] | ALBUMIN | 4.15
C[C@@H]1CC[C@H]2[C@@H](C)C(=O)O[C@@H]3O[C@@]4(C)CC[C@@H]1[C@]32OO4 | ALBUMIN | 4.15
CO[C@H]1C[C@@H]2CC[C@@H](C)[C@@](O)(O2)C(=O)C(=O)N2CCCC[C@H]2C(=O)O[C@H]([C@H](C)C[C@@H]2CC[C@@H](O)[C@H](OC)C2)CC(=O)[C@H](C)/C=C(\C)[C@@H](O)[C@@H](OC)C(=O)[C@H](C)C[C@H](C)/C=C/C=C/C=C/1C | ALBUMIN | 4.18
C[C@]12C/C(=C/O)C(=O)C[C@@H]1CC[C@@H]1[C@@H]2CC[C@@]2(C)[C@H]1CC[C@]2(C)O | ALBUMIN | 3.8
Cc1cnc(C(=O)NCCc2ccc(S(=O)(=O)NC(=O)NC3CCCCC3)cc2)cn1 [GLIPIZIDE] | ALBUMIN | 4.15
CN1C(=O)CN=C(c2ccccc2)c2cc(Cl)ccc21 | ALBUMIN | 4.33
CC[C@]1(O)CC[C@H]2[C@@H]3CCC4=CCCC[C@@H]4[C@H]3CC[C@@]21C | ALBUMIN | 3.63
O=c1cc(-c2ccccc2)oc2ccc3ccccc3c12 | ALBUMIN | 3.62
COc1ccc(/C=C/C(=O)Nc2ccccc2C(=O)O)cc1OC | ALBUMIN | 4.27
C[C@@H](O)[C@H]1C(=O)N2C(C(=O)O)=C(S[C@@H]3CN[C@H](C(=O)N(C)C)C3)[C@H](C)[C@H]12 | ALBUMIN | 4.27
Nc1cccc(Cl)c1 | ALBUMIN | 4.08
CC(C(=O)O)c1ccc(-c2ccccc2)c(F)c1 (stereo not drawn) | ALBUMIN | 4.27
CCOC(=O)[C@H](CCc1ccccc1)N[C@@H](C)C(=O)N1Cc2ccccc2C[C@H]1C(=O)O | ALBUMIN | 4.15

----------
species on record: Rattus norvegicus; assay: DrugMatrix - Regimen: Daily Repeat; format: toxicity, organism-based, Sprague-Dawley; design: regimen Daily Repeat, gender Male, age 6-8 weeks; settings: in vivo, po, 0 mg/kg, 72 h, tissue Blood, route oral GAVAGE, dose level Control, time 3 day, vehicle 100 % WATER

compound | MONOCYTE, %
Nc1ccc(S(=O)(=O)Nc2ncccn2)cc1 | 2.67
O=C(O)c1cccnc1 | 0.67
CCN(CC)CC#CCOC(=O)C(O)(c1ccccc1)C1CCCCC1 (centres undefined) | 0.5
CN1C2CCCC1CC(NC(=O)c1nn(C)c3ccccc13)C2 (centres undefined) | 0.67
CC[C@H]1OC(=O)[C@H](C)[C@@H](O[C@H]2C[C@@](C)(OC)[C@@H](O)[C@H](C)O2)[C@H](C)[C@@H](O[C@@H]2O[C@H](C)C[C@H](N(C)C)[C@H]2O)[C@](C)(OC)C[C@@H](C)C(=O)[C@H](C)[C@@H](O)[C@]1(C)O | 0.5
Nc1ccc(S(=O)(=O)Nc2nccs2)cc1 | 0.67
CCN[C@@H](C)Cc1cccc(C(F)(F)F)c1 | 2.67
CCCCCCCCCCCCCCCC[n+]1ccccc1.[Br-] | 1.33
O=P1(N(CCCl)CCCl)NCCCO1 (centres undefined) [CYCLOPHOSPHAMIDE ANHYDROUS] | 0.5

----------
species: Rattus norvegicus; test: DrugMatrix - Regimen: Daily Repeat; type: toxicity, organism-based, Sprague-Dawley; design: regimen Daily Repeat, gender Male, age 6-8 weeks; details: in vivo, po, 0 mg/kg, 72 h, tissue Blood, route oral GAVAGE, dose level Control, time 3 day, vehicle 100 % WATER

compound | output-unit | MEAN CORPUSCULAR VOLUME
O=P1(N(CCCl)CCCl)NCCCO1 (stereo not given) [CYCLOPHOSPHAMIDE ANHYDROUS] | fL | 62.53
CCCc1nn(C)c2c(=O)[nH]c(-c3cc(S(=O)(=O)N4CCN(C)CC4)ccc3OCC)nc12 | fL | 61.8
Cc1c(N(C)CS(=O)(=O)[O-])c(=O)n(-c2ccccc2)n1C.[Na+] [DIPYRONE SODIUM] | fL | 64.23
CCCCCCCCCCCCCCCC[n+]1ccccc1.[Br-] | fL | 64.85
CC(C)(C)NC[C@H](O)COc1nsnc1N1CCOCC1 | fL | 62.88
CCOC(N)=O | fL | 63
O=C(O)c1cc(=O)c2c(OCC(O)COc3cccc4oc(C(=O)O)cc(=O)c34)cccc2o1 | fL | 62.12
CN1C2CCCC1CC(NC(=O)c1nn(C)c3ccccc13)C2 (stereo not given) | fL | 62.88
O=C(O)c1cccnc1 | fL | 62.95
CCN[C@@H](C)Cc1cccc(C(F)(F)F)c1 | fL | 60.52

----------
organism: Rattus norvegicus; test: DrugMatrix - Regimen: Daily Repeat; assay type: toxicity, organism-based, Sprague-Dawley; design: regimen Daily Repeat, gender Male, age 6-8 weeks; conditions: in vivo, po, 0 mg/kg, 72 h, tissue Blood, route oral GAVAGE, dose level Control, time 3 day, vehicle .5 % CMC

compound | output-unit | ABSOLUTE LYMPHOCYTE
CC(=O)O[C@]1(C(C)=O)CC[C@H]2[C@@H]3C=C(Cl)C4=CC(=O)[C@@H]5C[C@@H]5[C@]4(C)[C@H]3CC[C@@]21C [CYPROTERONE ACETATE] | CELLS/uL | 12191.17
CC(C)(Sc1cc(C(C)(C)C)c(O)c(C(C)(C)C)c1)Sc1cc(C(C)(C)C)c(O)c(C(C)(C)C)c1 | CELLS/uL | 14453
CO[C@H]1C[C@@H]2CC[C@@H](C)[C@@](O)(O2)C(=O)C(=O)N2CCCC[C@H]2C(=O)O[C@H]([C@H](C)C[C@@H]2CC[C@@H](O)[C@H](OC)C2)CC(=O)[C@H](C)/C=C(\C)[C@@H](O)[C@@H](OC)C(=O)[C@H](C)C[C@H](C)/C=C/C=C/C=C/1C | CELLS/uL | 15937.67
CCCCC1C(=O)N(c2ccccc2)N(c2ccccc2)C1=O | CELLS/uL | 9125.17
COc1ccc(/C=C/C(=O)Nc2ccccc2C(=O)O)cc1OC | CELLS/uL | 14453
COc1ccccc1OCC(O)COC(N)=O (configuration not stated) | CELLS/uL | 13776.5
CCOC(=O)[C@H](CCc1ccccc1)N[C@@H](C)C(=O)N1Cc2ccccc2C[C@H]1C(=O)O | CELLS/uL | 12191.17
CC(C(=O)O)c1ccc(-c2ccccc2)c(F)c1 (configuration not stated) | CELLS/uL | 14453
Cc1cnc(C(=O)NCCc2ccc(S(=O)(=O)NC(=O)NC3CCCCC3)cc2)cn1 [GLIPIZIDE] | CELLS/uL | 12191.17
C[C@@H]1CC[C@H]2[C@@H](C)C(=O)O[C@@H]3O[C@@]4(C)CC[C@@H]1[C@]32OO4 | CELLS/uL | 13776.5
CN1C(=O)CN=C(c2ccccc2)c2cc(Cl)ccc21 | CELLS/uL | 12269.67
C[C@@H](O)[C@H]1C(=O)N2C(C(=O)O)=C(S[C@@H]3CN[C@H](C(=O)N(C)C)C3)[C@H](C)[C@H]12 | CELLS/uL | 14453
